Attribute: growth inhibition
test_name: NCI Yeast Anticancer Drug Screen. Data for the cln2 rad14 strain (AID 165);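 also: 0% = growth equal to vehicle treated cultures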
condition_set: S. cerevisiae cln2 rad14 strain, at 50.0 µM, hits give high values
Procedure: Growth inhibition of yeast strains with defined genetic alterations is measured as a screen for potential anti-cancer activity. Selected strains with alterations in DNA damage repair or cell cycle control were exposed to compounds and growth inhibition was measured relative to vehicle treated controls. The strain used in this assay is cln2 rad14
About 79,000 compounds went through this panel and 15% of them were active in at least one assay; those are over-represented in the sample as a whole. The source made the active and inactive calls. Rule as the data show it: active = growth inhibition above about 70%; inactive = the rest.

Input line: Quick one: growth inhibition of CC1=NN(C(=O)Nc2ccccc2)C(=O)C2CCC(=O)N12 (configuration not stated) ?
Output line: 3.85% (inactive)

Input line: I would be grateful if you could share the reported growth inhibition for C/C(=N\O)C1(C)CC=CCC1C(=O)O (configuration not stated) .
Output line: 19.2% (inactive)

Input line: // growth inhibition lookup, key: CC(C)Oc1c(NCCO)c2cc(Cl)ccc2oc1=O
Output line: -66.2% (inactive)

Input line: Which growth inhibition is reported for this molecule? Oc1ccccc1C1SCSCS1
Output line: -3.3% (inactive)

Input line: Looking for the measured growth inhibition of NNC(=O)c1ccc(-c2ccc[nH]2)[nH]1 , can you help?
Output line: -75.5% (inactive)

Input line: Reported growth inhibition for C=CCOC(=O)Nc1ccc(S(=O)(=O)N2CCCCC2)cc1 : what is it?
Output line: -17.4% (inactive)

Input line: Look up growth inhibition: Nc1ccc([N+](=O)[O-])cc1C(=O)O
Output line: -15.7% (inactive)
